FYI, the data here is from patent US20260042754A1.

Biological target: human PARG (PARG-NanoLuc fusion in HEK293T cells) (Homo sapiens (Human))
Sequence (Q86W56 whole entry, the tested form may be a part): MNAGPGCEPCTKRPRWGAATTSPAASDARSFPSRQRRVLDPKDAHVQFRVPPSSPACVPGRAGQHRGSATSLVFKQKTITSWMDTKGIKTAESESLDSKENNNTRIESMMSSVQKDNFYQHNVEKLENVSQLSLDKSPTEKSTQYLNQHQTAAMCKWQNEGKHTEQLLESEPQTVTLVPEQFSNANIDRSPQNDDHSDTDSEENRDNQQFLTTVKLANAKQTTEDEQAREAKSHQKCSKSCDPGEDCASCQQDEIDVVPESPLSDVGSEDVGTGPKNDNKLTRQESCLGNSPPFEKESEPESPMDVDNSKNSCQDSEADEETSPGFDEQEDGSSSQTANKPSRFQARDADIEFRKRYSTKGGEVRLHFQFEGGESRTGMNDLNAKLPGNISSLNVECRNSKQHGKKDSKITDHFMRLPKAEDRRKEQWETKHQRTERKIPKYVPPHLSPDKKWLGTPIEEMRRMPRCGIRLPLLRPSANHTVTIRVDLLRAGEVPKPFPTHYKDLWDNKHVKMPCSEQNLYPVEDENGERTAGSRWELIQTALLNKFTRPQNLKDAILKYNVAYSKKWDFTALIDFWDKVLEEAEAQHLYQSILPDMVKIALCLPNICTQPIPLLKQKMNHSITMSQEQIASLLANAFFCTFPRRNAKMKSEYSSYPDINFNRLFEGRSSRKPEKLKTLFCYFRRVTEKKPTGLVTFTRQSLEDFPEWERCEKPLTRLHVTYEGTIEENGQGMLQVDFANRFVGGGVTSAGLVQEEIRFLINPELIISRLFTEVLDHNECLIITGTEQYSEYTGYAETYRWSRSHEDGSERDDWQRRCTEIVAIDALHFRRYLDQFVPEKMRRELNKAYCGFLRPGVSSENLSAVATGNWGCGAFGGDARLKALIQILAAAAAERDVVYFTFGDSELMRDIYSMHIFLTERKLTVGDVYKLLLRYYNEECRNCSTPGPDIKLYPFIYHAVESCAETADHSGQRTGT
Assay: PARG NanoBRET-based cellular target engagement assay
Conditions: HEK293T cells transfected with PARG-NanoLuc, NanoBRET probe 0.89 μM, 2 hours; read-out: PARG TE IC50
Kindly state IC50 for each of the entries shown.

IC50 reading for CO/N=c1\[nH]c2c(-c3cnc(C(=O)N(C)C)[nH]3)cc(S(=O)(=O)NC3(C)CC3)cc2c(=O)n1Cc1cnn(C)c1 [Example 23] : < 30 nM

IC50 reading for Cc1nc(C)c(CO/N=c2\[nH]c3ccc(S(=O)(=O)NC4(C)CC4)cc3c(=O)n2Cc2cnn(C)c2)s1 [Example 3] : 100 to 1000 nM

IC50 reading for CO/N=c1\[nH]c2c(-c3ccc(C(C)=O)cc3)cc(S(=O)(=O)NC3(C)CC3)cc2c(=O)n1Cc1cnn(C)c1 [Example 16] : < 30 nM

IC50 reading for CO/N=c1\[nH]c2ccc(S(=O)(=O)NC3(C)CC3)cc2c(=O)n1Cc1cnc(C)s1 [Example 1] : 30 to 99 nM

IC50 reading for CO/N=c1\[nH]c2c(C3=C[C@@H](C)N(C(=O)C4(C)CC4)CC3)cc(S(=O)(=O)NC3(C)CC3)cc2c(=O)n1Cc1cnn(C)c1 [Example 30] : < 30 nM

IC50 reading for CON=c1[nH]c2c(N3CCN(C(=O)C4(C)CC4)[C@H](C)C3)cc(S(=O)(=O)NC3(C)CC3)cc2c(=O)n1Cc1cnn(C)c1 [Example 8] : < 30 nM

IC50 reading for CO/N=c1\[nH]c2c(Cl)cc(S(=O)(=O)NC3(C)CC3)cc2c(=O)n1Cc1cnn(C)c1 [Example 4] : 30 to 99 nM

IC50 reading for CO/N=c1\[nH]c2c(C3=C[C@@H](C)NCC3)cc(S(=O)(=O)NC3(C)CC3)cc2c(=O)n1Cc1cnn(C)c1 [Example 13] : 30 to 99 nM

IC50 reading for CO/N=c1\[nH]c2c(-c3ccc(C(=O)C4(C)CC4)cc3)cc(S(=O)(=O)NC3(C)CC3)cc2c(=O)n1Cc1cnn(C)c1 [Example 18] : < 30 nM

IC50 reading for CO/N=c1\[nH]c2c(C3=C[C@@H](C)N(C(C)=O)CC3)cc(S(=O)(=O)NC3(C)CC3)cc2c(=O)n1Cc1cnn(C)c1 [Example 29] : < 30 nM

IC50 reading for CO/N=c1\[nH]c2c(N3CCN(C(=O)N(C)C4CC4)[C@H](C)C3)cc(S(=O)(=O)NC3(C)CC3)cc2c(=O)n1Cc1cnn(C)c1 (single isomer, unassigned) [Example 44] : < 30 nM

IC50 reading for CO/N=c1\[nH]c2c(N3CCN(C(=O)C4CCCC4)[C@H](C)C3)cc(S(=O)(=O)NC3(C)CC3)cc2c(=O)n1Cc1cnn(C)c1 [Example 39] : < 30 nM

IC50 reading for CC(C)O/N=c1\[nH]c2ccc(S(=O)(=O)NC3(C)CC3)cc2c(=O)n1Cc1cnn(C)c1 [Example 11] : 30 to 99 nM
